- studyTarget: pooled human IgG (human IgG1,2,3 and 4)
reportedEndpoint: Enzyme Activity Endpoint Assay (purified): Fc (ng/µL)

• PRT-363 (protein) MSQTEDSESLQRLRDIEDFQAEKEKQNVVYTKWLDGVDVKDHDFRKIVDGNSAYYATPLLNGRGWYDINKDFNRDSDKCAAAVAANMFHYWLDRNRDNVDRFLRQNPEKHGIIELPDGQLKLSDFLNTYESDDGYRDKSKLFDFISENFNGPVWTDKLLDNYINGYAYNSKYGRTIEDPTKNTSKINFFKEVFNEKILTNNHSIRNQNEFSVLLIEALYTGKAIGLSYGPAGLRHGLGHIISVWGADLDADGNVVAIYVTDSDDKKLTIGDERVGLKRYKISTDDEGRLRLTAYEETHNTGGQVRGLWTLDTGKQAWADYFDKTEQTGTDQAEQ = 462
• PRT-521 (protein) MVTSVWTKGVTPPADFTQGEDVFHAPYVANQGWYDITKTFNGKDNLLCGAATAGNMLHWWFDQNKEYIEAYLKKHPEKQKIIFNNQELFDLKAAINTKGSQKNSELFNYFRDKAFPNLSARRLGVFPDLVLDMFINGYYLNVTKTQTTDVNRTYQEKDKRGGIFDAVFTRGVQSKLLTSRHDLKNKGLKEISDLIKQELTEGKALGLSHTYANVRINHVINLWGADFDSDGNLKAIYVTDSDTNASIGMKKYFVGVNSAGKVAISAKEIKEDNIGAQVLGLFTLSTGQDIWNQTNLEHHHHHH = 13
• PRT-524 (protein) MITSVWTKGVTPPTDFRKIVDGNIAYYHAPYKAGQGWYDITKAFDGGDNLLCGAATAGNMLHWWFDQNKEEIEAYLKKHPEKQKIIFNNQELFDLKAVINTKDSQTNSALFNYFKDKAFPNLSARRLGVFPDLVLDMFINGYYLNVYKTQTTDVNRTYQTKDRRGGIFDAVFTRGVQSKLLTERHDLKNKTLKEISDLIKQELTEGKALGLSHTYANVRINHVINLWGADFDSNGNLEAIYVTDSDTNASIGMKKYFVGVNSAGKVAISAKEIKEDNIGAQVLGLFTLSTGQDIWNQTNLEHHHHHH = 285
• PRT-328 (protein) MTITSVWTKGVTPPTPEDFRKNNEDVLHAPYVANQGWYDITKTFDGKDNLLCGAATAGNMLHWWFDQNKEEIERYLKKHPEKQKIIFNNQELFDVKAAIDTKDSQTNSKLFNYFRDKAFPGLSARQLGVFPDLVLDMFINGYYLNLGKTQSTDVNRPYQDKDKRGGIFDAVFTRGVQTTLLTARHDLKNKGLNEISDLIKQELTEGKALALSHTYANVRINHVINLWGADFDAEGNLIAIYVTDSDANASIGMKKYFVGRNANGKVAISAKKIEGDNIGAQVLGLFTLSTGQDIWQKLS = 455
• PRT-689 (protein) MQITSVWTKGVTPLTMDQFTNNNEDVIHAPYKPGQGWYDITKTFDGKDNLLCGAATAGNMLHWWFDQNKEEIENYLKKHPEKQKIIFNNQKLFDLRKAINTKDSQTNSALFNYFRDKAFPNLSARQLGVMPDLVLDMFINGYYLNVFKTQSTDVNREYQTKDKRGGIFDDVFGRGDQTTLLTARHDLKNGGLNDISQIIKQELSSGKALALSHTYANVSISHVINLWGADFNEEGNLEAIYVTDSDANASIGMKKYYVGKNAHGKVAISAKKIEGENIGAQVLGLFTLSSGKEIWQKLSLEHHHHHH = 248
• PRT-348 (protein) MSQTEDSESLQRLRDIEDFQAEKKDQNVVYTKWLDGVDVKDHDFRKIVDGNIAYYATPLLNGRGWYDINKDFNRDSDKCAAAVAANMFHYWLDINRDNVDRFLRQNPEKHGIIELPDGQLKLSDFLNTYESDHGYRDKSKLFDFISENFNGPVWTDKLLDNYINGYAYNYKYGRTIEDPTKNTSKINFFKEVFNEKILTNNHSIRNQNEFSVLLIEALYTGKAIGLSYGPAGLRHSLGHIISVWGADLDADGNVVAIYVTDSDDKKLTIGDERVGLKRYKISTDDENRLRLTAYEETHNTGGQVRGLWTLDTGKYAWADYFDKTEQTGTDQAEQ = 415
• PRT-505 (protein) MVTSVWTKGVTPPTDFIKGEDVFHAPYKAGQGWYDITKAFDGGDDLLCGAATAGNMLHWWFDQNKEYIEAYLKKHPEKQKIMFGDQELLDVRKAINTKGSQKNSELFNYFRDKAFPNLSARRLGVMPDLVLDMFINGYYLNVTKTQTTDVNRQEQEKDKRGGIFDAVFGRGDQTKLLTSRHDLKNKGLKEISDLIKQELTEGKALGLSHTYANVRINHVINLWGADFDSDGNLKAIYVTDSDSNASIGMKKYFVGVNSAGKVAISAKEIKEDNIGAQVLGLFTLSTGQKIWNKTNLEHHHHHH = 148
• PRT-636 (protein) MQITSVWTKGVTPLTMDQFRNYNYDVIHAPYKPGQGWYDITKAFDGKDNLLCGAATAGNMLHWWFDQNKTEIEAYLSKHPEKQKIIFNNQELFDLKAAIDTKDSQTNSQLFNYFRDKAFPNLSARQLGVMPDLVLDMFINGYYLNVFKTQSTDVNRPYQDKDKRGGIFDAVFTRGDQTTLLTARHDLKNKGLNDISTIIKQELTEGKALALSHTYANVSISHVINLWGADFNAEGNLEAIYVTDSDANASIGMKKYFVGINAHGHVAISAKKIEGENIGAQVLGLFTLSSGKDIWQKLSLEHHHHHH = 17

Cited source: patent US20250027068
